Target: Human vitronectin receptor (αv β3) (Homo sapiens, UniProt P05106+P06756)
Construct: Human vitronectin receptor(αv β3) was purified from human placenta; from tissue; host or cells: human placenta
Assay: Vitronectin adhesion assay (solid phase receptor assay, competition with biotinylated vitronectin)
Assay type: binding
Conditions: positive control included on each plate; stated range; read-out: αv β3 antagonist IC50 (positive control)
Method: Human vitronectin receptor(αv β3) was purified from human placenta as previously described [Pytela et al., Methods in Enzymology, 144:475-489 (1987)]. […] The plate was read with a microtiter plate reader at a wavelength of 450 nm and when the maximum-binding control wells reached an absorbance of about 1.0, the final A450 were recorded for analysis. The data were analyzed using a macro written for use with the EXCEL™ spreadsheet program. […]
pIC50: −log10 of the molar value.
Observable: pIC50

Q: Could you please provide reported pIC50 for N=C(N)NCCCCC(=O)NCC(=O)NC(CC(=O)O)c1cccnc1 (stereo not shown) [reference compound] ? Thanks!
Result: 8.00 to 8.52

----------
Measured log10(IC50) accompanies every entry in the list below.
Target: Human vitronectin receptor (αv β3) (Homo sapiens, UniProt P05106+P06756)
Construct: Human vitronectin receptor(αv β3) was purified from human placenta; from tissue; host or cells: human placenta
Test: Vitronectin adhesion assay (solid phase receptor assay, competition with biotinylated vitronectin)
Assay type: binding
Conditions: inhibition of 50% of maximum binding of 1 nM biotinylated vitronectin; 2 h competition, room temperature, TBS+++ pH 7.4; read-out: AVB3 IC50
Counter-ions that a name gives are not always drawn.
Units before log transform: nM; reported quantity: IC50; transform: log10.

| Compound | log10(IC50) |
| --- | --- |
| N=C(N)Nc1cccc(C(=O)Nc2ccc(C3CC3C(=O)O)cc2)c1 (stereo not drawn) [Example 2, trifluoroacetate salt] | 1.48 |
| COc1cc(NC(=O)c2cccc(NC(=N)N)c2)ccc1C1CC1C(=O)O (stereo not drawn) [Example 5, trifluoroacetate salt] | 1.91 |
| CCOC(=O)C1CC1c1ccc(NC(=O)c2cccc(NC(=N)N)c2)cc1 (stereo not drawn) [Example 1, monohydrate trifluoroacetate salt] | 2.72 |
| N=C(N)Nc1cc(C(=O)Nc2ccc(C3CC3C(=O)O)cc2)cc(C(F)(F)F)c1 (stereo not drawn) [Example 6, trifluoroacetate salt] | 2.09 |
| O=C(Nc1ccc(C2CC2C(=O)O)cc1)c1cccc(NC2=NCCCN2)c1 (stereo not drawn) [Example 7, trifluoroacetate salt] | 1.28 |

Next up:
Q: Item NC(=O)N=C(N)Nc1cccc(C(=O)Nc2ccc(C3CC3C(=O)O)cc2)c1 (stereo not drawn) [Example 8, trifluoroacetate salt] : provide log10(IC50)
Result: 3.14

----------
Molecular target: Human fibrinogen receptor (αIIb β3) (Homo sapiens, UniProt P05106+P08514)
Construct: Human fibrinogen receptor (αIIb β3) was purified from outdated platelets
Assay: Purified IIb/IIIa receptor assay (solid phase receptor assay, competition with biotinylated vitronectin)
Conditions: inhibition of 50% of maximum binding of 1 nM biotinylated vitronectin; 2 h competition, room temperature, TBS+++ pH 7.4
Where a name gives a salt, the structure may show the parent alone.
Observable: IC50 (µM)
API: value field is a number in µM; no unit string.

Q: Jot down IC50 (Human fibrinogen receptor (αIIb β3) (Homo sapiens, UniProt P05106+P08514)) of N=C(N)Nc1cc(C(=O)Nc2ccc(C3CC3C(=O)O)cc2)cc(C(F)(F)F)c1 (stereo not drawn) [Example 6, trifluoroacetate salt] .
Result: 9.7

Q: Send back Human fibrinogen receptor (αIIb β3) (Homo sapiens, UniProt P05106+P08514) IC50 of N=C(N)Nc1cccc(C(=O)Nc2ccc(C3CC3C(=O)O)cc2)c1 (stereo not drawn) [Example 2, trifluoroacetate salt] only.
Result: 0.533

Q: Supply IC50 measured with Human fibrinogen receptor (αIIb β3) (Homo sapiens, UniProt P05106+P08514) for COc1cc(NC(=O)c2cccc(NC(=N)N)c2)ccc1C1CC1C(=O)O (stereo not drawn) [Example 5, trifluoroacetate salt] .
Result: 2.89

Q: Recall the reported IC50 of O=C(Nc1ccc(C2CC2C(=O)O)cc1)c1cccc(NC2=NCCCN2)c1 (stereo not drawn) [Example 7, trifluoroacetate salt] on Human fibrinogen receptor (αIIb β3) (Homo sapiens, UniProt P05106+P08514) and write it down.
Result: 4.8

Q: // output IC50; input CCOC(=O)C1CC1c1ccc(NC(=O)c2cccc(NC(=N)N)c2)cc1 (stereo not drawn) [Example 1, monohydrate trifluoroacetate salt] ; system Human fibrinogen receptor (αIIb β3) (Homo sapiens, UniProt P05106+P08514)
Result: 3.65

Q: Provide measured IC50 on Human fibrinogen receptor (αIIb β3) (Homo sapiens, UniProt P05106+P08514) for NC(=O)N=C(N)Nc1cccc(C(=O)Nc2ccc(C3CC3C(=O)O)cc2)c1 (stereo not drawn) [Example 8, trifluoroacetate salt] please.
Result: 13.1

Reference for the values: patent US5773644A
